All figures here come from patent US8618163B2.

Recorded FPR1 (rel. eff.) for the following compounds
- tested-system: FPR1 (Homo sapiens, UniProt P21462)
- Construct: expressed in transfected cells; host or cells: HEK-Gqi5 (HEK cells with chimeric G protein Gqi5)
- Sequence (P21462 whole entry, species assumed): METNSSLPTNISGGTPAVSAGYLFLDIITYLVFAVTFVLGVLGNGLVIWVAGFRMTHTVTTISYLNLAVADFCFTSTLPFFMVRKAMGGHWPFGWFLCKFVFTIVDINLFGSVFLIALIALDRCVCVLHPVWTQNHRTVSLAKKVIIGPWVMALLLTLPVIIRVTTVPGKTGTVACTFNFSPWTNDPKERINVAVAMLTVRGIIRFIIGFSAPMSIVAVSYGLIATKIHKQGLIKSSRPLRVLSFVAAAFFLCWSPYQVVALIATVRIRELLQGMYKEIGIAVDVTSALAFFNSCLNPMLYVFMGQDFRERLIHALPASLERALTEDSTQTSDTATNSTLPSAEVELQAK
- protocol-summary: compound-induced calcium activity on FLIPR Tetra in HEK-Gqi5 cells stable expressing FPR1
- Format: cell-based
- Set-up: scale not given here
- test-settings: relative efficacy, calcium, FLIPR Tetra
The answer should be a number; do not append a unit.

Sample records with FPR1 (rel. eff.):
O=C(O)[C@@H]1[C@H](C(=O)Nc2ccc(I)cc2)[C@@H]2CC[C@H]1C21CC1 (racemic) [Compound 9] | 0.73
CC(C)=C1C2C=CC1C(C(=O)Nc1ccc(I)cc1)C2C(=O)O (racemic) [Compound 22] | 62
CC1(C)[C@@H]2CC[C@H]1[C@@H](C(=O)Nc1ccc(I)cc1)[C@H]2C(=O)O (racemic) [Compound 12] | 68
NC(=O)C1C(C(=O)Nc2ccc(Br)cc2)C2CCC1C21CC1 (racemic) [Compound 46B] | 0.30
CC(C)=C1[C@H]2C=C[C@@H]1[C@@H](C(=O)O)[C@H]2C(=O)Nc1ccc(Br)cc1 (racemic) [Compound 21] | 50
CC1(C)[C@@H]2CC[C@H]1[C@@H](C(=O)Nc1ccc(Br)cc1)[C@H]2C(=O)O (racemic) [Compound 13] | 0.33
CC(=O)c1ccc(NC(=O)[C@H]2[C@@H](C(=O)O)[C@H]3CC[C@@H]2C32CC2)cc1 (racemic) [Compound 43] | 0.50
O=C(O)C1C(C(=O)Nc2ccc(Br)cc2)C2CCC1C21CC1 (single isomer, unassigned) [Compound 10B] | 0.76

Next compound, FPR1 (rel. eff.) to be filled in.
Qu. Any idea what its FPR1 (rel. eff.) is? The compound is CSc1ccc(NC(=O)[C@H]2[C@@H](C(=O)O)[C@H]3CC[C@@H]2C32CC2)cc1 (racemic) [Compound 42]
Ans. 0.23
